# Assay protocol: protein stability index of a GFP-peptide fusion (GPS, HEK-293T) (PSI 1-6); higher = more stable;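 also: 24-mer peptide tiles fused after GFP, lentivirally expressed, FACS-sorted into six equal bins by GFP/DsRed ratio, decoded by Illumina sequencing, PSI is the read-weighted mean bin number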
# Experimental setup: treatment: MLN4924 1 uM, 8 h; c terminus: a fixed tail appended
# class assignment by measured protein stability index: band 1 = under 3, band 2 = from 3 up to 4, band 3 = 4 and over

>  <Polymer sequence>
IIHETAVGMNFLHCMAPPLLHLDL [RIPK4]

>  <Assigned category>
band 1

$$$$
>  <Polymer sequence>
FHITNDEPIPFWTFLSRILTGLNY [NSDHL]

>  <Assigned category>
band 1

$$$$

Input line: // return the class label for EAPSTASSTPDSTEGGNDDSDFRE [RTN2]
Output line: band 3

Input line: Follow-up item: RSLFIDRTIVKGYNENVYTEDGKL [MED27]
Output line: band 3

Input line: Let us now turn to PPWFEGLESRFQSKSGYLRYSCES [DFFB]
Output line: band 1

Input line: Same read-out for DRHTKFFEEPEDPSNRSFFSEIIS [PPP2R2B] ?
Output line: band 2

Input line: Next: YALQMEQLNGILLHLESELAQTRA [KRT18]
Output line: band 1

Input line: Now give it for FECAWNGSDSVIMTGAYNNFFRMF [PPP2R2C] too.
Output line: band 1

Input line: Entry DCGPSRADRCSPKEDQAWDGASQD [FBXO34] please
Output line: band 3

Input line: Another: RISNPSDDNSCEDLEEERREEEEK [PCMTD2]
Output line: band 3

Input line: One more sequence: KTYHYLYLAMLERFQDGDNILEKE [FEM1B]
Output line: band 1

====

# Assay protocol: protein stability index of a GFP-peptide fusion (GPS, HEK-293T) (PSI 1-6); higher = more stable
# Experimental setup: treatment: DMSO; c terminus: a fixed tail appended
Observable: protein stability index
I only need the number, thanks.

Here's what some known entries look like.
>  <Polymer sequence>
DNARLAADDFRTKYEHELALRQTV [KRT16]

>  <protein stability index>
4.01

$$$$
>  <Polymer sequence>
SGFWGVARHFNYVGDLMGSLAYCL [DHCR7]

>  <protein stability index>
2.11

$$$$
>  <Polymer sequence>
VSVTYCSVSQDFPGSNLNLLTNNS [ETS2]

>  <protein stability index>
2.59

$$$$
>  <Polymer sequence>
SSSFTSIASEWFLIANRSYKVSAA [SLC22A15]

>  <protein stability index>
2.26

$$$$
>  <Polymer sequence>
PKKGPAPSLSPGSSCVKYLIFLSN [TSPAN10]

>  <protein stability index>
2.59

$$$$
>  <Polymer sequence>
TVQEAATSRRARASKKTAQPWVEV [MFSD9]

>  <protein stability index>
3.22

$$$$
>  <Polymer sequence>
EAPSTASSTPDSTEGGNDDSDFRE [RTN2]

>  <protein stability index>
5.57

$$$$
>  <Polymer sequence>
LLQADREHLPVKPDTMEKLRTHID [DENND6A]

>  <protein stability index>
3.86

$$$$
>  <Polymer sequence>
LFAIANGFSPSYEFFAVTRFLVGM [SLC22A15]

>  <protein stability index>
3.06

$$$$
>  <Polymer sequence>
KAVKYQSKARRKKIMIIICCVILG [STX1A]

>  <protein stability index>
2.18

$$$$

Input line: What value of protein stability index has been reported for the following sequence? GSGTIDFEEFLVMMVRQMKEDAKG [TNNC2]
Output line: 3.25

Input line: Also need SCYQVYCGRYINGHMLQHHGNSGH [HDAC6] , thanks.
Output line: 2.49

Input line: Now consider PPPPHPYNPHPGFPELGYSYGGGS [DVL3] and answer again.
Output line: 3.4

====

# Assay protocol: protein stability index of a GFP-peptide fusion (GPS, HEK-293T) (PSI 1-6); higher = more stable
# Experimental setup: treatment: DMSO; c terminus: a fixed tail appended
Observable: protein stability index

>  <Polymer sequence>
LLPDGRHAVVEVEDVPLAAKLVDL [TAF7L]

>  <protein stability index>
4.28

$$$$
>  <Polymer sequence>
TIRSGISPNLNVVDGRLTYPTCGI [SASS6]

>  <protein stability index>
2.86

$$$$
>  <Polymer sequence>
QRTHTGEKPYKCPECGEIFAHSSN [ZNF263]

>  <protein stability index>
3.6

$$$$
>  <Polymer sequence>
SNQEVLQSCLLVIFATKPHVLPAV [PYCR3]

>  <protein stability index>
3.34

$$$$
>  <Polymer sequence>
SPGHSSAGQEGEDTLRRRLLAPEA [TOR1AIP2]

>  <protein stability index>
4.29

$$$$
>  <Polymer sequence>
PAYATTRIRSQIGNTESELKKLAE [GDAP1]

>  <protein stability index>
4.53

$$$$
>  <Polymer sequence>
ACRANVKSGAIMSALSDTEIQREI [PPFIA4]

>  <protein stability index>
3.41

$$$$
>  <Polymer sequence>
RDLASVPPELTASRQSFRMAMGNP [DVL3]

>  <protein stability index>
3.75

$$$$

Input line: Quick one: protein stability index for ESSTREVVFPYTSKSCMRAVLEYL [RHOBTB2] ?
Output line: 2.74

Input line: Same question, SIPQSSLEPLKAIIQYRLPMKKNN [ACSBG2] this time
Output line: 3.48

Input line: Also, YGTKKFMQELTEMLGFRPYRFYFY [SLC6A17] please.
Output line: 2.29

Input line: Would you kindly repeat that for CLKEFPEKQELHRNMLGLLGNVAE [ZER1] ?
Output line: 3.19

Input line: FLDIDTSAVEKEPARAPPEPPHNL [SERTAD3] , same question.
Output line: 4.84

====

# Assay protocol: protein stability index of a GFP-peptide fusion (GPS, HEK-293T) (PSI 1-6); higher = more stable
# Experimental setup: treatment: MLN4924 1 uM, 8 h; c terminus: a fixed tail appended
// reported protein stability index per item
Format: numeric value only, no unit, no commentary.

>  <Polymer sequence>
VSSSEQLQSCQAEIIELRRTVNAL [KRT34]

>  <Numeric readout>
2.77

$$$$
>  <Polymer sequence>
TEDLCEKPDDEVKETAHDLDVKSP [RIPK4]

>  <Numeric readout>
5.62

$$$$
>  <Polymer sequence>
ALRMATWNQILDPWVYILLRKAVL [PTGFR]

>  <Numeric readout>
2.43

$$$$
>  <Polymer sequence>
SIPQSSLEPLKAIIQYRLPMKKNN [ACSBG2]

>  <Numeric readout>
3.49

$$$$
>  <Polymer sequence>
GSGTIDFEEFLVMMVRQMKEDAKG [TNNC2]

>  <Numeric readout>
3.88

$$$$
>  <Polymer sequence>
HRYIAYMANQEAAIQAFLDKCSAP [IQUB]

>  <Numeric readout>
2.38

$$$$

Input line: Please give the measured protein stability index for this sequence: `EATPRSLRASGSLCGPHAKAPYLC`
Output line: 2.82

Input line: // same read-out, input: LVFQRRMDGQTDFWRDWEDYAHGF [TNXB]
Output line: 1.93

Input line: Thanks! And SSATTYFWYREALDISDSISESGG [SLC6A17] ?
Output line: 2.73

Input line: Now try LAGGKLILSLEGGYNLRALAEGVS [HDAC6] .
Output line: 2.31

====

# Assay protocol: protein stability index of a GFP-peptide fusion (GPS, HEK-293T) (PSI 1-6); higher = more stable
# Experimental setup: treatment: DMSO; c terminus: a fixed tail appended
Observable: protein stability index
# respond with the number and nothing more

>  <Polymer sequence>
NYPKGGLLDSMCPASTPSVLSSEQ [ETS2]

>  <Observable>
protein stability index

>  <Numeric readout>
4.64

$$$$
>  <Polymer sequence>
EARGIRAPPLPDSPQPLASSPGPW [FCHO1]

>  <Observable>
protein stability index

>  <Numeric readout>
4.34

$$$$
>  <Polymer sequence>
VDGVWTAQRPGITHGVGLVLRVEQ [SCNN1D]

>  <Observable>
protein stability index

>  <Numeric readout>
2.21

$$$$
>  <Polymer sequence>
ALWCSGHLNGHAMCQTKHSPWADG [ADAMTS4]

>  <Observable>
protein stability index

>  <Numeric readout>
2.48

$$$$

Input line: # protein stability index lookup, item KEDIDLIDILWRQDIDLGAGREVF [NFE2L1]
Output line: 2.75

Input line: Now consider GIPKGVMLSHDNITWIAGAVTKDF [ACSBG2] and answer again.
Output line: 2.67

Input line: Repeat for the following sequence: LFFPVIYDVKYLMKSCKNLKGGLQ [CNOT7]
Output line: 2.72

Input line: Repeat with MHPINVRRDPSIPIYGLRQSILLN [C22orf31]
Output line: 2.33

====

# Assay protocol: protein stability index of a GFP-peptide fusion (GPS, HEK-293T) (PSI 1-6); higher = more stable
# Experimental setup: treatment: DMSO; c terminus: a fixed tail appended
Think of 4 as a floor: if protein stability index stands on it or above, it is fulfilled; beneath it, not fulfilled.

>  <Polymer sequence>
LESLRTAQKTALLQDGRRKVHYLF [DPCD]

>  <Assigned category>
not fulfilled

$$$$
>  <Polymer sequence>
RENGNNSSDKVRGIETLESVPIIG [PHTF1]

>  <Assigned category>
fulfilled

$$$$
>  <Polymer sequence>
MTQVITRTQEEKLEHVRALIKKYS [TRIM55]

>  <Assigned category>
not fulfilled

$$$$

Input line: Dear colleague, could you confirm whether SLRTLKPEGNILRDRFKSFQRRNM [NOP53] has protein stability index at or above 4?
Output line: not fulfilled

Input line: Now consider CPGLRLPGSLAGRRAGPAIWAQGW [AUH] and answer again.
Output line: not fulfilled

Input line: Item: QEHPRQQLATSSFLLFLLTGIVSV [MOSPD3]
Output line: not fulfilled

Input line: Follow-up item: RYLLCELVSDDPRCRLSLDDRVLS [POP5]
Output line: not fulfilled

Input line: Similarly, SEPFLTPYLLGPDKNLTEREVFNE [SLC19A2] ?
Output line: fulfilled
